# systemTested: serotonin 2 receptor (Rattus norvegicus, UniProt P14842)
# Sequence (P14842 whole entry): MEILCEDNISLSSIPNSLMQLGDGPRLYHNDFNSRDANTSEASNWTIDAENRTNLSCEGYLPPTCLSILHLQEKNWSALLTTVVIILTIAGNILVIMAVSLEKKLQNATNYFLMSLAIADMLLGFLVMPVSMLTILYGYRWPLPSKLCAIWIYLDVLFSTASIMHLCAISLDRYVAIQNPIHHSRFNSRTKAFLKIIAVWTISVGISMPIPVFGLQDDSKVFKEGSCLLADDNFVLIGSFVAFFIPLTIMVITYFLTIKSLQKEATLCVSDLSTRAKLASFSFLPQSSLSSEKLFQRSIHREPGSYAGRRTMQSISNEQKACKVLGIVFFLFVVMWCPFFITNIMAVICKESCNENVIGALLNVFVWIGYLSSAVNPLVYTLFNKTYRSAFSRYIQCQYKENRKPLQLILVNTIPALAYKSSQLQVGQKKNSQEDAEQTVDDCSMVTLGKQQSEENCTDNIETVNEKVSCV
Counter-ions that a name gives are not always drawn.
Assign labels as follows, please: YES for Ki below 4 nM; NO for Ki equal to or exceeding 4 nM.

INSERT INTO results (compound, group) VALUES
  ('CCCCNC(=O)c1ccc(-c2cc3ccsc3c(N3CCN(CC)CC3)n2)cc1 [Example 452, dihydrochloride]', 'NO'),
  ('CCC(=O)Nc1ccc(-c2cc3ccccc3c(N3CCN(CC)CC3)n2)cc1 [Example 69, Hydrochloride]', 'NO'),
  ('CCN1CCN(c2nc(-c3ccc(S(=O)(=O)CC)cc3)cc3ccsc23)CC1 [Example 450, dihydrochloride]', 'NO'),
  ('CCN1CCN(c2nc(-c3ccc(S(C)(=O)=O)nc3)cc3ccccc23)CC1 [Example 129, Hydrochloride]', 'NO'),
  ('CCN1CCN(c2nc(-c3ccc(OCC(C)=O)cc3)cc3ccccc23)CC1', 'YES'),
  ('CCN1CCN(c2nc(-c3ccc(OC)cc3)cc3cccc(F)c23)CC1 [Example 233, dihydrochloride]', 'YES'),
  ('CCCCS(=O)(=O)Nc1ccc(-c2cc3ccccc3c(N3CCN(CC)CC3)n2)cc1 [Example 73, Hydrochloride]', 'YES'),
  ('CCN1CCN(c2nc(/C=C/c3ccc(OC)cc3)cc3ccccc23)CC1 [Example 190, Dihydrochloride]', 'YES'),
  ('CN(C)CCC=C1c2ccccc2C=Cc2ccccc21 [Cyclobenzaprine, cyclobenzaprine hydrochloride, reference compound]', 'NO'),
  ('CCN1CCN(c2nc(/C=C/c3ccccc3S(C)(=O)=O)cc3ccccc23)CC1.Cl [Example 202, Hydrochloride]', 'YES'),
  ('CCN1CCN(c2nc(-c3ccc(OC)nc3)cc3ccccc23)CC1', 'NO'),
  ('CCN1CCN(c2nc(-c3cc(OCCO)cc(OCCO)c3)cc3ccccc23)CC1 [Example 38, hydrochloride]', 'NO'),
  ('CCN1CCN(c2nc(/C=C\c3ccc(OC)cc3)cc3ccccc23)CC1 [Example 191, Oxalate]', 'YES'),
  ('CCCNC(=O)c1ccc(-c2cc3ccccc3c(N3CCN(CC)CC3)n2)cc1F [Example 384, Dihydrochloride]', 'YES');

====

Here, each record is paired with measured melting point data.
Where a name gives a salt, the structure may show the parent alone.
quantityName: melting point

INSERT INTO assay_data (molecule, quantityname, recordedvalue) VALUES
  ('CCN1CCN(c2nc(/C=C/c3ccc(CS(C)(=O)=O)cc3)cc3ccccc23)CC1 (as salt: oxalate)', 'melting point', '245 to 247 °C'),
  ('CCN1CCN(c2nc(-c3cc(OC)c(OC)cc3OC)cc3ccccc23)CC1.Cl', 'melting point', '158 to 160 °C'),
  ('CCN1CCN(c2nc(-c3cccc(OC)c3)cc3ccccc23)CC1 (as salt: hydrochloride) [Example 9, Dihydrochloride]', 'melting point', '108 to 110 °C'),
  ('CCN1CCN(c2nc(-c3cccc(OC)c3OC)cc3ccccc23)CC1 (as salt: hydrochloride)', 'melting point', '122 to 123 °C'),
  ('CCN1CCN(c2nc(/C=C/c3ccc(N4CCOCC4)nn3)cc3ccccc23)CC1 (as salt: oxalate)', 'melting point', '88 to 90 °C'),
  ('CCN1CCN(c2nc(-c3ccc(OCC(C)(C)O)cc3)cc3ccsc23)CC1 (as salt: hydrochloride) [Example 260, dihydrochloride]', 'melting point', '137 to 139 °C'),
  ('CCN1CCN(c2nc(-c3ccc(CCCO)c(F)c3)cc3ccccc23)CC1 (as salt: hydrochloride)', 'melting point', '126 to 127 °C (dec.)'),
  ('CCCN1CCN(c2nc(-c3ccc(OC)cc3)cc3ccccc23)CC1 (as salt: hydrochloride)', 'melting point', '220 to 226 °C'),
  ('CCN1CCN(c2nc(-c3ccc(OCCOC)cc3)cc3ccccc23)CC1 (as salt: hydrochloride) [Example 42, dihydrochloride]', 'melting point', '184.5 to 185 °C (dec.)'),
  ('CCN1CCN(c2nc(-c3ccc(SC[C@@H](C)O)cc3)cc3ccsc23)CC1 (as salt: hydrochloride) [Example 444, dihydrochloride]', 'melting point', '98.5 to 99.5 °C'),
  ('CCN1CCN(c2nc(-c3ccc(CO)c(F)c3)cc3ccccc23)CC1 (as salt: hydrochloride)', 'melting point', '228 °C (dec.)'),
  ('CCN1CCN(c2nc(-c3ccc(OCCO)c(OC)c3)cc3ccccc23)CC1 (as salt: hydrochloride) [Example 340, dihydrochloride]', 'melting point', '128 to 129 °C'),
  ('CCCN(C)C(=O)c1ccc(-c2cc3ccccc3c(N3CCN(CC)CC3)n2)cc1 (as salt: oxalate)', 'melting point', '131 to 132 °C'),
  ('CCN1CCN(c2nc(-c3cc(OC)cc(OC)c3)cc3ccccc23)CC1 (as salt: hydrochloride) [Example 15, Dihydrochloride]', 'melting point', '121 to 123 °C'),
  ('CCN1CCN(c2nc(-c3ccc(OC)cc3)cc3c(C)cccc23)CC1 (as salt: hydrochloride)', 'melting point', '249 to 253 °C'),
  ('CCN1CCN(c2nc(C#Cc3ccc(OC)cc3)cc3ccccc23)CC1 (as salt: hydrochloride) [Example 178, Dihydrochloride]', 'melting point', '230 °C (dec.)'),
  ('CCNC(=O)c1ccc(-c2cc3ccsc3c(N3CCN(CC)CC3)n2)cc1 (as salt: hydrochloride) [Example 448, dihydrochloride]', 'melting point', '142 to 143 °C'),
  ('CCN1CCN(c2nc(-c3ccnc(OCCOC)c3)cc3ccccc23)CC1 (as salt: hydrochloride)', 'melting point', '139 to 140 °C'),
  ('CCN1CCN(c2nc(-c3ccc(S(=O)(=O)N(C)C)cc3)cc3ccccc23)CC1 (as salt: hydrochloride) [Example 362, dihydrochloride]', 'melting point', '155 to 156 °C'),
  ('CCN1CCN(c2nc(-c3ccc(OC)cc3)cc3cccc(C)c23)CC1 (as salt: hydrochloride)', 'melting point', '248 to 253 °C'),
  ('CCC(F)c1ccc(-c2cc3ccccc3c(N3CCN(CC)CC3)n2)cc1 (stereo not drawn) (as salt: hydrochloride)', 'melting point', '147 to 149 °C'),
  ('CCN1CCN(c2nc(-c3cccc(CCCO)c3)cc3ccccc23)CC1 (as salt: hydrochloride)', 'melting point', '101 to 103 °C'),
  ('CCN1CCN(c2nc(-c3ccc(OCC(C)O)cc3)cc3cccnc23)CC1 (stereo in doubt) (as salt: hydrochloride) [Example 246, Dihydrochloride]', 'melting point', '136 to 140 °C'),
  ('CCN1CCN(c2nc(-c3ccc(S(=O)(=O)CCCOC)cc3)cc3ccccc23)CC1 (as salt: hydrochloride)', 'melting point', '177.5 to 180 °C'),
  ('CCN1CCN(c2nc(-c3ccc(OCCO)cc3)cc3cccnc23)CC1 (as salt: hydrochloride) [Example 245, Dihydrochloride]', 'melting point', '137 to 143 °C'),
  ('CCN1CCN(c2nc(-c3ccc(OCC(C)(C)O)cc3)cc3cccnc23)CC1 (as salt: hydrochloride) [Example 250, Dihydrochloride]', 'melting point', '127 to 132 °C'),
  ('CCN1CCN(c2nc(-c3ccc(C4CCOCC4)cc3)cc3ccccc23)CC1 (as salt: hydrochloride)', 'melting point', '148 to 150 °C');

====

# systemTested: serotonin 1A receptor (Rattus norvegicus)
# Construct: To the receptor fraction of the hippocampus were added a test compound and 0.5 nM of [^3H]; 8-hydroxy-dipropylaminotetralin; from tissue; host or cells: rat hippocampus membrane fraction
# Sequence (P19327 whole entry): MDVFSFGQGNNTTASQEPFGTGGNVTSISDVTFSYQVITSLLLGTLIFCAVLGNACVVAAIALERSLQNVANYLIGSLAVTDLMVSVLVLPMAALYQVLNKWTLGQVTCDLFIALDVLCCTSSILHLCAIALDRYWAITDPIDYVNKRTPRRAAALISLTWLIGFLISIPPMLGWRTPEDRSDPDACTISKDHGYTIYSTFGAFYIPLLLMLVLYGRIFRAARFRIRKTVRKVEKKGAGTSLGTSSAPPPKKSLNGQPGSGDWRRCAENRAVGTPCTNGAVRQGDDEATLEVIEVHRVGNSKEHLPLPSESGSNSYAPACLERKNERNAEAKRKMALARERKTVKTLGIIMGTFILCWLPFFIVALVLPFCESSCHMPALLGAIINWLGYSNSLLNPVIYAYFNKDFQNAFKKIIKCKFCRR
# procedureDetails: Binding test on [3H] 8-hydroxy-dipropylaminotetralin, hippocampus receptor fraction
# Design: species or system SD rats
# experimentalSetup: rat hippocampus receptor fraction, 0.5 nM [3H] 8-OH-DPAT, room temperature 30 min; read-out: 5HT1
Where a name gives a salt, the structure may show the parent alone.
Below, each entry is listed with its recorded Ki.
quantityName: Ki

INSERT INTO measurements (molecule, recordedvalue) VALUES
  ('CCN1CCN(c2nc(C#Cc3ccccn3)cc3ccccc23)CC1 [Example 179, Oxalate]', '5.3 nM'),
  ('CCN1CCN(c2nc(-c3ccc(C(C)(C)O)cc3)cc3ccccc23)CC1', '11.3 nM'),
  ('CCCN(C)C(=O)c1ccc(-c2cc3ccccc3c(N3CCN(CC)CC3)n2)cc1', '11.1 nM'),
  ('CCCNC(=O)c1ccc(-c2cc3ccccc3c(N3CCN(CC)CC3)n2)cc1F [Example 384, Dihydrochloride]', '27.3 nM'),
  ('CCN1CCN(c2nc(-c3ccc(OCCOC)cc3)cc3ccccc23)CC1 [Example 42, dihydrochloride]', '33.1 nM'),
  ('CCN1CCN(c2nc(-c3ccc(OC)cc3)cc3ccccc23)CC1', '60 nM'),
  ('CCN1CCN(c2nc(-c3ccc(S(C)(=O)=O)cc3)cc3ccccc23)CC1 [Example 342, dihydrochloride]', '6.2 nM'),
  ('CCN1CCN(c2nc(-c3ccc4c(c3)CC(CO)CO4)cc3ccccc23)CC1 (stereo not shown) [Example 122, Hydrochloride]', '40.1 nM'),
  ('CCN1CCN(c2nc(-c3ccc(OC)cc3OC)cc3ccccc23)CC1 [Example 12, Dihydrochloride]', '140 nM'),
  ('CCN1CCN(c2nc(-c3ccc(OCC(O)COC)cc3)cc3ccccc23)CC1 (stereo not shown) [Example 343, dihydrochloride]', '35.7 nM'),
  ('CCN1CCN(c2nc(-c3ccc(OCC(C)(C)O)cc3)cc3sccc23)CC1 [Example 290, dihydrochloride]', '54.7 nM'),
  ('CCN1CCN(c2nc(-c3cnc(CCCO)s3)cc3ccccc23)CC1 [Example 171, oxalate]', '4.7 nM'),
  ('CN1CCN(c2nc(-c3ccc(OCC(C)(C)O)cc3)cc3sccc23)CC1 [Example 288, hydrochloride]', '80.9 nM'),
  ('CCN1CCN(c2nc(-c3ccc(OC)cc3)cc3ccsc23)CC1 [Example 459, dihydrochloride]', '108 nM'),
  ('CCN1CCN(c2nc(-c3ccc(C#CC(C)(C)O)cc3)cc3sccc23)CC1 [Example 466, oxalate]', '49.8 nM'),
  ('CCN1CCN(c2nc(-c3ccc(C(C)CCO)cc3)cc3ccccc23)CC1 (stereo not shown) [Example 383, Oxalate]', '7.4 nM');
